# Tested on: NCI-H226 lung
# EXPERIMENTAL_DETAILS: NCI tumour cell line growth inhibition, 48 h
QUANTITY_MEASURED: TGI

COMPOUND: ClCCc1ccccc1CC1=NCCc2ccccc21
QUANTITY_MEASURED: TGI
REPORTED_VALUE: > 100 µM
//
COMPOUND: C/C=C(\C)C(=O)N1c2ccccc2CC1c1c(C)[nH]c2ccccc12 (stereo not given)
QUANTITY_MEASURED: TGI
REPORTED_VALUE: > 100 µM
//
COMPOUND: COC(=O)[C@]1(Cc2ccc3ccccc3c2)CCCCCCN1C(=O)c1ccccc1
QUANTITY_MEASURED: TGI
REPORTED_VALUE: > 52.8 µM
//
COMPOUND: CCCCCCC(=O)c1ccc2ccccc2c1O
QUANTITY_MEASURED: TGI
REPORTED_VALUE: > 100 µM
//
COMPOUND: O=C(COC(=O)c1cccc2c(=O)c3ccccc3[nH]c12)Nc1ccc(S(=O)(=O)Nc2ncccn2)cc1
QUANTITY_MEASURED: TGI
REPORTED_VALUE: > 100 µM
//
COMPOUND: O=C(NNC(=O)c1c(Cl)c(Cl)c(Cl)c(Cl)c1-c1nc2ccccc2[nH]1)c1ccc(Cl)cc1
QUANTITY_MEASURED: TGI
REPORTED_VALUE: > 100 µM
//
COMPOUND: OCCCCCNc1ccnc2cc(Cl)ccc12
QUANTITY_MEASURED: TGI
REPORTED_VALUE: > 100 µM
//
COMPOUND: O=C(N[C@@H](Cc1ccccc1)B(O)O)[C@H](Cc1cccc2ccccc12)NC(=O)N1CCOCC1
QUANTITY_MEASURED: TGI
REPORTED_VALUE: 0.00164 µM
//
COMPOUND: CCCCSC1=N/C(=C\c2ccc(N(C)C)cc2)C(Cl)=N1
QUANTITY_MEASURED: TGI
REPORTED_VALUE: > 100 µM
//
COMPOUND: C=COC(=O)N1C2CCCC(Cl)(C(C)=O)C1CC2 (stereo not given)
QUANTITY_MEASURED: TGI
REPORTED_VALUE: > 100 µM
//
COMPOUND: Fc1cc2nc3n(c2cc1F)C(c1c(Cl)cccc1Cl)SC3 (stereo not given)
QUANTITY_MEASURED: TGI
REPORTED_VALUE: 45.7 µM
//
COMPOUND: CC1(C)OC2COC(c3[nH]nc4c(=O)[nH]c(=O)[nH]c34)C2O1 (stereo not given)
QUANTITY_MEASURED: TGI
REPORTED_VALUE: > 100 µM
//
COMPOUND: C#CCN(Cc1nc2cc(C(F)(F)F)ccc2nc1-c1ccccc1)c1ccc(F)cc1
QUANTITY_MEASURED: TGI
REPORTED_VALUE: > 100 µM
//
COMPOUND: CCCC(=O)Nc1c(I)cc(I)c(CC(CC)C(=O)O)c1I (stereo not given)
QUANTITY_MEASURED: TGI
REPORTED_VALUE: > 100 µM
//
COMPOUND: COC1C(O)CC(OC2CC(OC3CC(O[C@@H]4C(=O)c5c(cc6cc(OC7CC(OC8CC(O)C(O)C(C)O8)C(O)C(C)O7)c(C)c(O)c6c5O)CC4[C@H](OC)[C@@H](O)C(C)=O)OC(C)C3O)OC(C)C2O)OC1C (stereo not given in full)
QUANTITY_MEASURED: TGI
REPORTED_VALUE: 0.181 µM
